test: amyloid nucleation score (Sup35N fusion, yeast selection) (log enrichment); library NNK2; higher = more nucleation; inactive = no reads after selection;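 note: zero at mode of non-aggregating sequences after 7 days selection at 30°C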
Here the recorded amyloid nucleation score is given for each entry.
Please reply with the value in numeric form only.

>>> df
              substance         measured_endpoint  meas_value
0  SGTDDLCMVPLGYLLTMRLP  amyloid nucleation score         0.7

Indicate the recorded amyloid nucleation score value for this substance: AHLAKSKVGLFCHNVMFEVP -0.381

Identify the reported amyloid nucleation score for the following entry. PGCSIDWILYRRTAYGTISD -0.619

Identify amyloid nucleation score associated with the substance RELCVFASCAFVGLLVESWK 6.16

Specify amyloid nucleation score for FIARDRLMTDRTRGKPSWEG and stop. 0.231

====

test: amyloid nucleation score (Sup35N fusion, yeast selection) (log enrichment); library NNK2; higher = more nucleation; inactive = no reads after selection
Measured Endpoint: amyloid nucleation score
# output: bare number, no unit

Some substances with known amyloid nucleation score results, for comparison:
              substance  meas_value
0  SCSDMIKYHHTVELSLVSAT       0.295
1  FESFLTLYIIYTGAANNSWV        4.01
2  IQWYNLYTENRMISKLRGSW      -0.547
3            TKVQERLGHF        1.46
4  KTIPSGVVGWVSEGQRSTNR        7.87

Please report the measured amyloid nucleation score for YTIAECQSCPQNFLFFH 5.96

Could you please provide reported amyloid nucleation score for YRFYSLRMYKFWWLTLTLCL ? Thanks! -1.12

Please supply the value of reported amyloid nucleation score for the item LVALVLPGRINENKYVCGD -0.588

Assign amyloid nucleation score to the following record: FGINSLYINKWSDRLRQCTR -0.142

====

test: amyloid nucleation score (Sup35N fusion, yeast selection) (log enrichment); library NNK1; higher = more nucleation; inactive = no reads after selection
Measured Endpoint: amyloid nucleation score

Please review the entries below; each comes with its answer.
>>> df
        substance  meas_value
0  TAGFPLCYNCYEKP      -0.625
1     PLCPSGRNYVS      -0.159

Consider the substance VELQYDLYCFSSFADPLS and give its recorded amyloid nucleation score. 1.29

Respond only with amyloid nucleation score recorded for CWRSVCGLLATGNQYFFGNA 4.88

Recall and state the measured amyloid nucleation score for IQQTLPQRYMYNEIRPCSSL . 0.502

Please give the documented amyloid nucleation score of GGILPLTCSFVRTSIDQIGG -0.154

Tell me its amyloid nucleation score given LRPSPKVWHDFWGMM as the entry. 0.437

Give me measured amyloid nucleation score, please, for this substance: SYSCSVSRKEFSIGVGEHEG -0.44

Check the records and state amyloid nucleation score for YFCFFSRMFTVEF 2.12

Supply recorded amyloid nucleation score for LSSCFPIDRSEDSDVYGYFK here. -0.252

====

assay: amyloid nucleation score (Sup35N fusion, yeast selection) (log enrichment); library NNK1; higher = more nucleation; inactive = no reads after selection
Label Fulfilled when amyloid nucleation score >= 0.8; otherwise Not fulfilled.

Worked cases, answers included:
              substance    group_label
0  WAMDKGWKVNHCNEAPMIHC  Not fulfilled
1  FWVSCRSMCEIRVSLKLRLN  Not fulfilled
2  QGSDASVGTAVGSTWEVCCC  Not fulfilled
3   DVRGRHRCRFGSQQTKRQS  Not fulfilled
4  SAYPCCLSEDYVSSSGVSNK  Not fulfilled

Threshold query (amyloid nucleation score >= 0.8) on TAYIIKHSFWLGPFNLGSLM Fulfilled

Please check the record STSATPYFSFRKIFMASAAS and state if its amyloid nucleation score is at or above 0.8. Not fulfilled

# bool: amyloid nucleation score of AIASVLAN >= 0.8 Not fulfilled

Does amyloid nucleation score meet or surpass 0.8 for DGRVKAKVMMVRNGSLRNVL ? Not fulfilled

Quick check: does YNFVSCLVYRK have amyloid nucleation score greater than or equal to 0.8? Fulfilled

====

assay: amyloid nucleation score (Sup35N fusion, yeast selection) (log enrichment); library NNK2; higher = more nucleation; inactive = no reads after selection
Catalogue of amyloid nucleation score readings, one per entry.
// response body must contain only the number

Here's what some known entries look like.
>>> print(df.to_string())
              substance  meas_value
0   PVFRFTSGPLDKNCVYRVN       0.564
1  HHRIFGMIDELSKVTNIHFG      -0.434
2  YLQYPYCSSKSFARDDLVKY       0.173

Identify the reported amyloid nucleation score for the following entry. RYTLRGSGEWLVHDTLGVTD 0.267

For the substance LDPLRPG , give its measured amyloid nucleation score value. 1.14

Look up and state reported amyloid nucleation score for KRSFVIRNLGFCALRLHISV 4.63

Specify amyloid nucleation score for GLHEVR and stop. 0.042

Give me measured amyloid nucleation score, please, for this substance: VHIYQTPPLKCIWSMDKTPA -0.442

====

assay: amyloid nucleation score (Sup35N fusion, yeast selection) (log enrichment); library NNK3; higher = more nucleation; inactive = no reads after selection
Measured Endpoint: amyloid nucleation score

Some solved entries appear below for comparison.
>>> df
               sequence         measured_endpoint  meas_value
0  VRIKFCAWKLGYGSTGNVHI  amyloid nucleation score       0.657
1              VFYIYSRW  amyloid nucleation score        1.69
2  VSRFVLLWMSNCWATYGLFR  amyloid nucleation score    inactive
3           PGVYKNVAFLR  amyloid nucleation score    inactive
4  LNMCLSLVSVLRAVSVYLWT  amyloid nucleation score    inactive
5            KSSMKLLSPP  amyloid nucleation score    inactive
6  YFLYLFRSVQCMLCHALNFN  amyloid nucleation score       0.586
7            CISKCLVNNV  amyloid nucleation score    inactive

Please find the next sequence below.
In one line, give reported amyloid nucleation score of the entry SMHYAQYIIIYWRMSSRVYD . inactive

====

// amyloid nucleation score lookup, one value per entry
assay: amyloid nucleation score (Sup35N fusion, yeast selection) (log enrichment); library NNK1; higher = more nucleation; inactive = no reads after selection
// return just the number, without any unit appended

              substance         measured_endpoint  meas_value
0  LERYVSMRFSWWDSSKKNTW  amyloid nucleation score        4.18

Identify amyloid nucleation score associated with the substance GLWKGLRHSSSKWERPHIRQ 1.1

Determine from records and report amyloid nucleation score for GYDRSGT 0.135

Check the records and state amyloid nucleation score for MGHVLGVYKSP 1.2

Specify amyloid nucleation score for TSKSTLYSECVMWPVDPEPT and stop. 0.273

Output amyloid nucleation score of FYRNIIKINMMVLWISWGHV 0.185

Let me know recorded amyloid nucleation score for HLSWLRINLPGSPHPPMSLP , thanks. 3.57

====

# amyloid nucleation score per entry
assay: amyloid nucleation score (Sup35N fusion, yeast selection) (log enrichment); library NNK2; higher = more nucleation; inactive = no reads after selection
Quick one: just the number, no unit, thanks!

>>> df
              substance  meas_value
0       LFYGNHWAPASWIWN        2.34
1   ALYLMTFPSRDLIRACEEA       0.678
2  SMHGSNVIWESFILRQEHDV      -0.268

Fill in reported amyloid nucleation score for this entry: SMMTVADP -0.529

Provide amyloid nucleation score value for the following substance: RTLYGALMIVWVS 0.004

For the substance HNGVCSSRARVSLWAGRCWK , give its measured amyloid nucleation score value. 0.742

Quote amyloid nucleation score reported for SPYVRWDKTNLIGWEWYRVE please. -0.819

Answer with the recorded amyloid nucleation score for the substance listed here: YKMILGCVVRVGYRILNCIR 0.295

Return amyloid nucleation score for the following substance: TFYRACALTLMRDQTDSWYC 4.35

Please give the documented amyloid nucleation score of FMGVKRVVTRVVCLQIGQPT 7.11

Please supply the value of reported amyloid nucleation score for the item RYYDLTNVVRPHYPCAHGDV 7.33

For the substance NNLTKWLNHWRYFRFSSALE , give its reported amyloid nucleation score. -0.178

Report amyloid nucleation score for YRVVTSTVKMRLWSRGVYDH 3.07

# return recorded amyloid nucleation score for input CTNAGRFMTWSNFRYIG 0.501

# return recorded amyloid nucleation score for input FQCNCTLSQIAWNKSQGQSS -0.363

Answer with the recorded amyloid nucleation score for the substance listed here: GYRFEAPWYNGLTVYGRIFC -1.1

Note amyloid nucleation score for the substance shown: VTKSRRFSFLYYVESLHNRC 4.25

Return amyloid nucleation score (reported value) for this substance: TVFKYLTFLGSIVFSTVPLV 0.088

Given FCSHMLARTYLKCGREDR , respond with its amyloid nucleation score. -0.337

For the substance SKDRCEVQLGKFTCLFMFDY , give its measured amyloid nucleation score value. -1.47

Identify the reported amyloid nucleation score for the following entry. YILLFSVGICPPRSWLIYCP 4.21

Supply reported amyloid nucleation score belonging to this substance: GVREYMH 0.544

Query amyloid nucleation score for TWGQVII -0.465

Give me measured amyloid nucleation score, please, for this substance: PSHSRMRIMNSTYSSFLLKV 0.214
